Recorded Avg. POC by entry
molecular target: FAK (Homo sapiens (Human), UniProt Q05397); experiment: KinaseProfiler off-target kinase profiling; type: biochemical; conditions: 10 μM, ATP near Km
Sequence (Q05397 whole entry): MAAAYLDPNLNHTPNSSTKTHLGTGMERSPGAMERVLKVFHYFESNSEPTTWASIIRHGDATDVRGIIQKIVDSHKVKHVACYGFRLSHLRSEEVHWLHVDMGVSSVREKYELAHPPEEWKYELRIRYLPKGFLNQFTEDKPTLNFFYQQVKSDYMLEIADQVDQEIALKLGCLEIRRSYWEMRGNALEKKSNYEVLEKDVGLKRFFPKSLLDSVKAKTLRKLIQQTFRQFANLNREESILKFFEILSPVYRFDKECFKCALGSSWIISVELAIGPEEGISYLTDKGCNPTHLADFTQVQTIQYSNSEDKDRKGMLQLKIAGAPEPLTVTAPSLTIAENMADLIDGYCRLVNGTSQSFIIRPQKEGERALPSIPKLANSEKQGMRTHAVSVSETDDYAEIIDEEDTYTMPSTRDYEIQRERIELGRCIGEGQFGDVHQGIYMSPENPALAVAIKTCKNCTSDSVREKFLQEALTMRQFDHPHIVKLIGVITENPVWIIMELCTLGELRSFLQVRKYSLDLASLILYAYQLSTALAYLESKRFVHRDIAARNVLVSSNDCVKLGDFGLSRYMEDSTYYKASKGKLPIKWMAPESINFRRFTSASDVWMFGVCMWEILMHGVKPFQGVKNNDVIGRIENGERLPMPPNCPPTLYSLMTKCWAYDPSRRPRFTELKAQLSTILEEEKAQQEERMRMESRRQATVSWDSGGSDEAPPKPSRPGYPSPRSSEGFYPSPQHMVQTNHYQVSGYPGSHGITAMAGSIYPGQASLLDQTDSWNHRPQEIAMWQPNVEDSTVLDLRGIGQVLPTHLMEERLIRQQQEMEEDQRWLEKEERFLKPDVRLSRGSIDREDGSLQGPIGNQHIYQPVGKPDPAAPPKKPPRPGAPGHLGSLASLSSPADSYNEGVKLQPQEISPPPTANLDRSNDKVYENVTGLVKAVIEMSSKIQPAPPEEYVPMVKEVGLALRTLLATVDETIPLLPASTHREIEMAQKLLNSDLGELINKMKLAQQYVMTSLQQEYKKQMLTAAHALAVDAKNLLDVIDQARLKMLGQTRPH
Answer format: value, then unit.

Worked examples, 3 compounds total:
Cc1c(-c2cnn(C)c2)nn(-c2ccccc2)c1NC(=O)NC1CCOc2cc(F)ccc21 (stereo not shown) | 104 POC
Cc1c(-c2ccc(=O)n(C)c2)nn(-c2ccccc2)c1NC(=O)NC1CN(CC(F)(F)F)Cc2ccccc21 (stereo not shown) | 105 POC
Cc1c(-c2cnn(C)c2)nn(-c2ccccc2)c1NC(=O)N[C@H]1CCCc2ccccc21 | 116.5 POC

Please find the next compound below.
Lookup result for COCc1ccc2c(c1)C(NC(=O)Nc1c(C)c(-c3cnn(C)c3)nn1-c1ccccc1)COC2 (stereo not shown) ; measured Avg. POC: 116.5 POC

Numbers sourced from patent US10351575B2.
